This collection of values is drawn from patent US8367698B2.

Biological target: human LCE (Homo sapiens, UniProt Q9H5J4)
Sequence (Q9H5J4 whole entry): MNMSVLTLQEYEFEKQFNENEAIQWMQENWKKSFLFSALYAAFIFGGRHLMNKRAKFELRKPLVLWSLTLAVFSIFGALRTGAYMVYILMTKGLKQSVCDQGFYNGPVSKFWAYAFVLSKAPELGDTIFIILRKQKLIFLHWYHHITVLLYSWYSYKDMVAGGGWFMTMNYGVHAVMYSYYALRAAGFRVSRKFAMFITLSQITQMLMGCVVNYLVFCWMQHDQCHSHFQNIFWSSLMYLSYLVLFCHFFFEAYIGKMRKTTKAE
pIC50: −log10 of the molar value.
If the reported pIC50 equals or exceeds 8, assign Yes. If not, assign No.

Query block: Could you please find out whether CCC1(C(=O)Nc2ccc(OC(C)C)cn2)CCCN(S(=O)(=O)c2cn(C)cn2)C1 (stereo not drawn) has pIC50 that meets 8 or exceeds it?
Result block: No

Query block: Could you please find out whether CC(C)Oc1ccc(C(=O)NCC2(c3ccccc3)CCCN(S(=O)(=O)c3ccccn3)C2)cc1 (stereo not drawn) has pIC50 that meets 8 or exceeds it?
Result block: Yes

Query block: Could you please find out whether CC(C)Oc1ccc(C(=O)NCC2(c3ccccc3)CCCN(S(=O)(=O)c3cn(C)cn3)C2)nc1 (stereo not drawn) has pIC50 that meets 8 or exceeds it?
Result block: No

Query block: Could you please find out whether CCC1(CNC(=O)c2ccc(OC(C)C)cc2)CCCN(S(=O)(=O)c2cn(C)cn2)C1 (stereo not drawn) has pIC50 that meets 8 or exceeds it?
Result block: No

Query block: Could you please find out whether COc1ccccc1C(=O)NCC1(c2ccccc2)CCCN(S(=O)(=O)c2ccccn2)C1 (stereo not drawn) has pIC50 that meets 8 or exceeds it?
Result block: No
